# target: 2-acylglycerol O-acyltransferase 1 (MGAT1, MOGAT1) (Homo sapiens)
pIC50: −log10 of the molar value.

[
  {
    "structure.as.smiles": "COc1cccc(CC(=O)N2Cc3ccc(S(=O)(=O)NCCc4cccc(F)c4)cc3C2)c1",
    "pIC50": "< 4.40"
  }
]

----------
# target: 2-acylglycerol O-acyltransferase 3 (MGAT3, MOGAT3) (Homo sapiens)
# protocol.notes: Inhibition of MGAT3 (unknown origin) assessed effect on incorporation of [1-14C]decanoyl moiety into triacylglycerol using [1-14C]decanoyl-CoA and 1,2-didecanoyl-sn-glycerol as substrates pre-incubated for 30 mins before substrate addition
Measured IC50 by item
measured.endpoint: IC50 (nM)

[
  {
    "structure.as.smiles": "COc1cccc(CC(=O)N2Cc3ccc(S(=O)(=O)Nc4cnn(-c5ccccc5)n4)cc3C2)c1",
    "measured.endpoint": "IC50",
    "measurement": 6
  },
  {
    "structure.as.smiles": "COc1cccc(CC(=O)N2Cc3ccc(S(=O)(=O)Nc4cnn(-c5ccc(F)cc5)n4)cc3C2)c1",
    "measured.endpoint": "IC50",
    "measurement": 6
  }
]
